# Subject of test: adenosine A1 receptor (Homo sapiens (Human), UniProt P30542)
# Sequence (P30542 whole entry): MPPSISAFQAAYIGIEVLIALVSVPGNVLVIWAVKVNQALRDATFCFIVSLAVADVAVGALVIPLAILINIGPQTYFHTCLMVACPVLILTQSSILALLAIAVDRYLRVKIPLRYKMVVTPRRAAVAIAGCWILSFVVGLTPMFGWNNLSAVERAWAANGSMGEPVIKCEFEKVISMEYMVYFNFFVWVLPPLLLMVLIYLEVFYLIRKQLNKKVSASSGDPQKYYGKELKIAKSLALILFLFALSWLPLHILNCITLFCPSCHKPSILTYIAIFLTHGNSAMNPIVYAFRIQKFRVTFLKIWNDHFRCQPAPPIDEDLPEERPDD
# Measurement notes: Indirect determination of adenosine agonism by gene expression (luciferase reporter), A1 cells
# Format: cell-based
# Test conditions: CHO cells stably transfected with adenosine A1 receptor; 1 μM forskolin; 50% inhibition of luciferase response
Structures can show the parent of a compound that is named as a salt.
Answer each item with its documented log10 EC50.
Values are log10 of EC50 in nM.

Give log10 EC50 for all compounds that follow.
1. CNC(=O)c1cc(CSc2nc(N3CC(O)C3)c(C#N)c(-c3ccccc3)c2C#N)ccn1 [Example 70]
2. CNC(=O)c1cc(CSc2nc(N)c(C#N)c(-c3ccc(OC)cc3OC)c2C#N)ccn1 [Example 44]
3. CNC(=O)c1cc(CSc2nc(N)c(C#N)c(-c3ccc(OCCN)cc3)c2C#N)ccn1 [Example 54, trifluoroacetate]
4. CNC(=O)c1cc(CSc2nc(NC[C@H](O)CO)c(C#N)c(-c3ccccc3)c2C#N)ccn1 [Example 83]
5. N#Cc1cnc(SCc2cccc(C(=O)NCCO)c2)c(C#N)c1-c1ccccc1 [Example 66]
6. N#Cc1c(NC[C@@H](O)CO)nc(SCc2cccc(C(N)=O)c2)c(C#N)c1-c1ccccc1 [Example 99]
7. CNC(=O)c1cc(CSc2nc(N)c(C#N)c(-c3cc(F)cc(F)c3)c2C#N)ccn1 [Example 51]

Result:
1: -0.70; 2: -0.40; 3: -1.40; 4: -0.70; 5: 0.11; 6: -0.05; 7: -0.70

Query: Please supply the value of reported log10 EC50 for the item CNC(=O)c1cc(CSc2nc(NCC(O)C(F)(F)F)c(C#N)c(-c3ccccc3)c2C#N)ccn1 (centres unmarked) [Example 87]
Result: -0.22
